Listed here are molecules together with their documented Growth Rate.
- Tested on: Fibroblast
- measurement-description: Incucyte cell viability with human fibroblast; further: unitless GR value; below 1 slowed growth and below 0 cell loss
- Assay type: toxicity, cell-based
- test-conditions: 18 h, 10 µM, compound concentration 10 uM, replicate number 1
observable: Growth Rate

[
  {
    "molecule": "Cn1cc(C(=O)O)c2ccc(N3CCC(OCc4c(-c5c(Cl)cccc5Cl)noc4C4CC4)CC3)cc21",
    "measured-target": "Fibroblast",
    "observable": "Growth Rate",
    "result-value": 0.62
  },
  {
    "molecule": "COCCNc1cc(NC(=O)N2CCCc3cc(CN4CCOCC4=O)c(C=O)nc32)ncc1C#N",
    "measured-target": "Fibroblast",
    "observable": "Growth Rate",
    "result-value": -0.07
  },
  {
    "molecule": "CC(=O)Nc1nc(C)c(S(=O)(=O)Nc2ccc(C(O)(C(F)(F)F)C(F)(F)F)cc2)s1",
    "measured-target": "Fibroblast",
    "observable": "Growth Rate",
    "result-value": 1
  },
  {
    "molecule": "Cn1nccc1-c1ccc(Sc2cccc(C3(C(N)=O)CCOCC3)c2)cc1",
    "measured-target": "Fibroblast",
    "observable": "Growth Rate",
    "result-value": -0.01
  },
  {
    "molecule": "Cc1ccc2c(N)c(C(=O)NC3CCc4cc(N5CC6CCC(C5)N6)ccc4C3)sc2n1.O=CO (stereo unspecified)",
    "measured-target": "Fibroblast",
    "observable": "Growth Rate",
    "result-value": 0.05
  },
  {
    "molecule": "Cc1nc(Nc2cnn(C3CCNCC3)c2)nc2c1N(C)C(=O)c1cc3ccccc3cc1N2C",
    "measured-target": "Fibroblast",
    "observable": "Growth Rate",
    "result-value": -0.22
  },
  {
    "molecule": "CNc1nc(-c2cc(C(=O)N3CCN(Cc4ccc(Cl)cc4)CC3)c(Cl)cn2)cs1",
    "measured-target": "Fibroblast",
    "observable": "Growth Rate",
    "result-value": -0.06
  },
  {
    "molecule": "Clc1ccccc1C(c1ccccc1)(c1ccccc1)n1cccn1",
    "measured-target": "Fibroblast",
    "observable": "Growth Rate",
    "result-value": 0.46
  },
  {
    "molecule": "CC[C@H](C(=O)Nc1ccccc1N1CCCC1)c1ccccc1",
    "measured-target": "Fibroblast",
    "observable": "Growth Rate",
    "result-value": -0.04
  },
  {
    "molecule": "CC[C@H]1[C@@H](O)[C@@H]2[C@H](CC[C@]3(C)[C@@H]([C@H](C)CCC(=O)O)CC[C@@H]23)[C@@]2(C)CC[C@@H](O)C[C@@H]12",
    "measured-target": "Fibroblast",
    "observable": "Growth Rate",
    "result-value": 0.82
  },
  {
    "molecule": "O=C(Nc1cccc(C(F)(F)F)c1)c1cc(Cl)ccc1O",
    "measured-target": "Fibroblast",
    "observable": "Growth Rate",
    "result-value": 0.8
  },
  {
    "molecule": "O=S1(=O)NCN(C2CC2)c2ccc(F)cc21",
    "measured-target": "Fibroblast",
    "observable": "Growth Rate",
    "result-value": -0.11
  },
  {
    "molecule": "CC(C)N1CCN(Cc2cnc(-c3cc(-c4cccc5[nH]ccc45)cc4[nH]ncc34)o2)CC1",
    "measured-target": "Fibroblast",
    "observable": "Growth Rate",
    "result-value": 0.27
  },
  {
    "molecule": "Cc1cc(-c2nncc3c(C(C)(C)C)c(OCc4ncnn4C)nn23)no1",
    "measured-target": "Fibroblast",
    "observable": "Growth Rate",
    "result-value": 0.1
  },
  {
    "molecule": "O=C(Cc1ccccc1[N+](=O)[O-])Nc1ccc(-c2ccc(C(O)(C(F)(F)F)C(F)(F)F)cc2F)cc1",
    "measured-target": "Fibroblast",
    "observable": "Growth Rate",
    "result-value": 0.13
  },
  {
    "molecule": "OC(c1ccc(-c2ccc(CN3CCN(Cc4ccncc4)CC3)cc2)c(F)c1)(C(F)(F)F)C(F)(F)F",
    "measured-target": "Fibroblast",
    "observable": "Growth Rate",
    "result-value": 0.24
  }
]

The values you see were collected from ChEMBL document CHEMBL5303304.
